assay: yeast display, Sf9 membrane polyspecificity reagent, FACS + sequencing; frameworks hold sequencing errors
Reported endpoint: polyreactivity (PSR sort gate)

Below, each entry is followed by its recorded polyreactivity (PSR sort gate) result.
INSERT INTO assay_data (monomer_sequence, reported_endpoint, recorded_result) VALUES
  ('QVQLQESGGGMVQAGGSLRLSCAASGYISWADYKGWYRQAPGKERELVAGIGYGSTTYYADSVKGRFTISRDNAINTAYLQMNSLKPEDTAVYYCAVGWYRDTAYKYWGHGTQVTVSS', 'polyreactivity (PSR sort gate)', 'low polyreactivity'),
  ('QVQLVESGGGLVQAGGSLRLSCAASGSIFIYYAMGWYRQAPGKERELVAAISSSGDSTNYADSVKGRFTISRDNAKNTVYLQMNSLKPEDTAVYYCAADPYYFYIWYWWPSFDYWGQGTQVTVSS', 'polyreactivity (PSR sort gate)', 'low polyreactivity'),
  ('QVQLVESGGGLVQAGGSLRLSCAAYGSIFAYNAMGWYRQAPGKEREFVAVITRSDDSTYADSVTGRFTISRDNAKNTVYLQMNSLKPVDTAVYYCAAQPFVIDGGYRGDYWGQGTQVTVSS', 'polyreactivity (PSR sort gate)', 'low polyreactivity'),
  ('QVQLVESGGGLVQAGGSLRLSCAASGFTFTAYAMGLYRQAPGKERQLVAAINWSGSRTYYADSVKGRFTISRDNAKNTVYLQMNSLKPEDSAVYYCNTPTSKSSYRHYDYWGQGTQVTVSS', 'polyreactivity (PSR sort gate)', 'high polyreactivity'),
  ('QVQLVESGGGLVQAGGSLRLSCAASGNSFREYTMGWCRQAPGKERELVAGISGSGGRTYYADSVKGRFTISRDNAKNTVFLQMNSLKPEDTAVYYCNDRWYYGIGYNYWGQGTQVTVSS', 'polyreactivity (PSR sort gate)', 'high polyreactivity'),
  ('QVQLVESGGGLVQAGGSLRLSCAASGSSFYDNAMGWYRQAPAKERELVAAITWDGDGTYYADSVKGRFTISRDNAKNTVYLQMNSLKPEDTAVYYCAADYYLVGFDYYYWYGYWGQGTQVTVSS', 'polyreactivity (PSR sort gate)', 'low polyreactivity'),
  ('QVQLVESGGGLVQAGGSLRLSCAASGFIFAIYAMGWYRQAPGKERELVAAINSDGSTYYADSVKGRFTISRDNAKNTVYLQMNSLKPEDTAVYYCNAETAGHDMDYWGQGTQVTVSS', 'polyreactivity (PSR sort gate)', 'low polyreactivity'),
  ('QVQLVESGGGLVQAGGSLRLSCAASGAMGWYRQAPGKERELVAAITQSGGSTRYADSVKGRFTISRDNAKNTVYLQMNSLKPEDTAVYYCKAEDPREWDPYYQDGFDFWGQGTQVTVSS', 'polyreactivity (PSR sort gate)', 'low polyreactivity');

Task: Output measured polyreactivity (PSR sort gate) for this item: "QVQLVESGGGLVQAGGSLRLSCAASGSTFGPNAMGWYRQAPGNERELVAAITWSGDSTYYADSVKGRFTISRDNAKNTVYLQMNSLKPEDTAVYYCNTDRNVWYAGYDYWGQGTQVSVSS"
Result: low polyreactivity

Task: Consider the sequence "QVQLVESGGGLVQAGGSLRLSCAASGRIFHQYAIGWSRPAPGKERELVAAISSGGGSTYYADSVKGRFTISRDNAKNTVYLQMNSLKPEDNAVYYCAAVYDYDRGVNYWGQGTQVTVSS" . State its measured polyreactivity (PSR sort gate).
Result: high polyreactivity

Task: Consider the sequence "QVQIVESGGGLVQAGGSLRLSCAASGRISKFYTMGWYRQAPGKERELVADISYSGGSTYYADSVKGRFTISRDIEKNTVYLQMNSLKPEDTAVYFCSVDGLQRAIDYWGQGTQVTVSS" and give its recorded polyreactivity (PSR sort gate).
Result: high polyreactivity
